- Test system: E. coli MG1655
- Assay type: cell-based, Escherichia coli
- Set-up: unit not given here
- assay-setup: Table 11, MHB medium
Numbered stars: 1 amine (or outer) side, 2 acyl side, 3 side chain; on linkers, the order of the positions; unused ones are H or OH. Bridge positions count the residues as written; N and C are the ends. Square brackets hold non-standard residues; d marks the D form. Peptide text beside a SMILES is read from it. I, II: the chains in the order shown. Actinocin(9to1) = Cc1c2oc3c(C)ccc(C(=O)[*:1])c3nc-2c(C(=O)[*:2])c(N)c1=O; NMeV = CN[C@H](C(=O)O)C(C)C; Sar = CNCC(=O)O
metric: Minimal inhibitory concentrations (MIC90) MG1655

molecule	observed-value
COC1=C(N)C(=O)c2nc(-c3nc(C(=O)O)c(C)c(-c4ccc(OC)c(OC)c4O)c3N)ccc2C1=O	3.2
CO[C@H]1[C@H](OC(=O)c2ccc(C)[nH]2)[C@H](O)[C@@H](Oc2ccc3c(O)c(NC(=O)c4c[nH]c(C(=O)Nc5c(O)c6ccc(O[C@H]7OC(C)(C)[C@@H](OC)[C@H](OC(=O)c8ccc(C)[nH]8)[C@@H]7O)c(C)c6oc5=O)c4C)c(=O)oc3c2C)OC1(C)C	12.5
Cc1c2oc3c(C)ccc(C(=O)N[C@@H]4C(=O)N[C@H](C(C)C)C(=O)N5CCC[C@H]5C(=O)N(C)CC(=O)N(C)[C@@H](C(C)C)C(=O)O[C@@H]4C)c3nc-2c(C(=O)N[C@@H]2C(=O)N[C@H](C(C)C)C(=O)N3CCC[C@H]3C(=O)N(C)CC(=O)N(C)[C@@H](C(C)C)C(=O)O[C@@H]2C)c(N)c1=O [Actinomycin D] (I: T[dV]P[Sar][NMeV] / II: T[dV]P[Sar][NMeV]; ester I:1-I:C, II:1-II:C; linker I:N-II:N via Actinocin(9to1))	200
